experiment: Oral bioavailability in Sprague-Dawley rat at 5 mg/kg; type: ADME, organism-based; conditions: in vivo
Would you kindly list bioavailability for each of these compounds?
Give bare numbers, in %.

>  <Smiles entry>
Cc1cn2c(C)c([C@H](OC(C)(C)C)C(=O)O)c(N3CCC(C)(C)CC3)c(-c3ccc(OCCc4ccc(F)cc4)cc3)c2n1

>  <bioavailability / %>
8

$$$$
>  <Smiles entry>
Cc1c([C@H](OC(C)(C)C)C(=O)O)c(N2CCC(C)(C)CC2)c(-c2ccc3c(c2)CCN(c2ncnc4c2oc2ccccc24)C3)c2ncnn12

>  <bioavailability / %>
37

$$$$
>  <Smiles entry>
Cc1nc2c(-c3ccc4c(c3)CCN(c3ncnc5c3oc3ccccc35)C4)c(N3CCC(C)(C)CC3)c([C@H](OC(C)(C)C)C(=O)O)c(C)n2n1

>  <bioavailability / %>
83

$$$$
>  <Smiles entry>
Cc1c([C@H](OC(C)(C)C)C(=O)O)c(N2CCC(C)(C)CC2)c(-c2ccc3c(c2)CCN(c2ncnc4c2oc2ccccc24)C3)c2cnnn12

>  <bioavailability / %>
33

$$$$

Now look at this entry.
Sure, the documented bioavailability for Cc1c([C@H](OC(C)(C)C)C(=O)O)c(N2CCC(C)(C)CC2)c(-c2ccc(OCCc3ccc(F)cc3)cc2)c2nccn12 is 13

* * *

test: Toxicity in rat H4-II-E cells assessed as fold change in lipid droplet formation at 10 uM incubated for 72 hrs boron-dipyrromethene staining based by high content screening (HCS) fluorescence analysis relative to control; type: cell-based
Metric name: fold change (FC)
Give bare numbers.

Hey, quick one: what's fold change (FC) for each of these?
1. Cc1nc(C)c([C@H](OC(C)(C)C)C(=O)O)c(N2CCC(C)(C)CC2)c1-c1ccc(OCCc2ccc(F)cc2)cc1
2. Cc1c([C@H](OC(C)(C)C)C(=O)O)c(N2CCC(C)(C)CC2)c(-c2ccc(OCCc3ccc(F)cc3)cc2)c2nccn12
3. Cc1nc2c(-c3ccc4c(c3)CCN(c3ncnc5c3oc3ccccc35)C4)c(N3CCC(C)(C)CC3)c([C@H](OC(C)(C)C)C(=O)O)c(C)n2n1
4. Cc1c([C@H](OC(C)(C)C)C(=O)O)c(N2CCC(C)(C)CC2)c(-c2ccc3c(c2)CCN(c2ncnc4c2oc2ccccc24)C3)c2cnnn12
5. Cc1c([C@H](OC(C)(C)C)C(=O)O)c(N2CCC(C)(C)CC2)c(-c2ccc(OCCc3ccc(F)cc3)cc2)c2ncnn12

Result:
[4, 1.9, 3.6, 1.3, 1.6]

* * *

assay: Cytotoxicity against human MT2 cells infected with HIV1 NLRep-Rluc harbouring polymorphic 124T/125T integrase; assay type: toxicity, cell-based; conditions: MT2 cells infected with HIV-1 NLRep-Rluc
Metric name: CC50

// solved cases for CC50 follow
>  <Smiles entry>
Cc1c([C@H](OC(C)(C)C)C(=O)O)c(N2CCC(C)(C)CC2)c(-c2ccc(OCCc3ccc(F)cc3)cc2)c2nc(C(C)C)cn12

>  <CC50>
≥ 10.3 µM

$$$$
>  <Smiles entry>
Cc1nc2c(-c3ccc(OCCc4ccc(F)cc4)cc3)c(N3CCC(C)(C)CC3)c([C@H](OC(C)(C)C)C(=O)O)c(C)n2n1

>  <CC50>
≥ 40 µM

$$$$

Now look at this entry.
Sure, the documented CC50 for Cc1c([C@H](OC(C)(C)C)C(=O)O)c(N2CCC(C)(C)CC2)c(-c2ccc(OCCc3ccc(F)cc3)cc2)c2nc(C3CC3)cn12 is ≥ 10.3 µM
